Assay: Example 3 plasma pharmacokinetics, normal hepatic function vs hepatic impairment
Settings: both, human, plasma, inhaled or intranasal, 160 mg, AUC0→t (Mean), hepatic impairment; single intranasal 160 mg cocaine HCl
measured property: AUC(0-t) (ng·h/mL)
Reply with just the number (in ng·h/mL).

What value of AUC(0-t) has been reported for the following compound? COC(=O)[C@H]1[C@@H](OC(=O)c2ccccc2)C[C@@H]2CC[C@H]1N2C [Cocaine, cocaine, reference compound]
223

---

Test: Example 3 plasma pharmacokinetics, normal hepatic function vs hepatic impairment
Conditions: both, human, plasma, other: intranasal (drug-soaked pledgets in the nasal cavity), 160 mg, AUCinf, range observed, hepatically impaired patients
measured property: AUC(0-inf)

What value of AUC(0-inf) has been reported for the following compound? COC(=O)[C@H]1[C@@H](OC(=O)c2ccccc2)C[C@@H]2CC[C@H]1N2C [Cocaine, cocaine, reference compound]
88 to 366 ng·h/mL

---

Test: Example 1 single-dose plasma pharmacokinetics after intranasal administration
Assay type: in vivo, human
Details: male, human, plasma, inhaled or intranasal, 160 mg, Male healthy subjects; single intranasal 160 mg cocaine HCl; plasma; read-out: AUClast (Mean)
measured property: AUC(0-t) (ng·h/mL)
Reply with just the number (in ng·h/mL).

What value of AUC(0-t) has been reported for the following compound? COC(=O)[C@H]1[C@@H](OC(=O)c2ccccc2)C[C@@H]2CC[C@H]1N2C [Cocaine, cocaine, reference compound]
31.5

---

Experiment: Example 1 single-dose plasma pharmacokinetics after intranasal administration
Type: in vivo, human
Conditions: both sexes, human, plasma, inhaled or intranasal, 160 mg, healthy subjects; single intranasal 160 mg cocaine HCl; plasma; read-out: AUClast (Mean)
measured property: AUC(0-t) (ng·h/mL)
Reply with just the number (in ng·h/mL).

What value of AUC(0-t) has been reported for the following compound? COC(=O)[C@H]1[C@@H](OC(=O)c2ccccc2)C[C@@H]2CC[C@H]1N2C [Cocaine, cocaine, reference compound]
38.4

---

Experiment: Example 3 plasma pharmacokinetics, normal hepatic function vs hepatic impairment
Details: both, human, plasma, inhaled or intranasal, 160 mg, AUC0→∞ (Mean), normal hepatic function; single intranasal 160 mg cocaine HCl
measured property: AUC(0-inf) (ng·h/mL)
Reply with just the number (in ng·h/mL).

What value of AUC(0-inf) has been reported for the following molecule? COC(=O)[C@H]1[C@@H](OC(=O)c2ccccc2)C[C@@H]2CC[C@H]1N2C [Cocaine, cocaine, reference compound]
95.3

---

Test: Example 3 urinary pharmacokinetics, normal hepatic function vs hepatic impairment
Assay type: in vivo, human
Conditions: both sexes, human, urine, other: intranasal (drug-soaked pledgets in the nasal cavity), 160 mg, subjects with hepatic impairment, Table 30; read-out: Renal Clearance, median (converted)
measured property: CL renal (mL/min)
Reply with just the number (in mL/min).

What value of CL renal has been reported for the following compound? COC(=O)[C@H]1[C@@H](OC(=O)c2ccccc2)C[C@@H]2CC[C@H]1N2C [Cocaine, cocaine, reference compound]
15.6

---

Experiment: Example 3 plasma pharmacokinetics, normal hepatic function vs hepatic impairment
Details: both, human, plasma, other: intranasal (drug-soaked pledgets in the nasal cavity), 160 mg, Cmax, range observed, hepatically impaired patients
measured property: Cmax

What value of Cmax has been reported for the following compound? COC(=O)[C@H]1[C@@H](OC(=O)c2ccccc2)C[C@@H]2CC[C@H]1N2C [Cocaine, cocaine, reference compound]
16.2 to 85.2 ng/mL
